Values were extracted from ChEMBL document CHEMBL1201862.

System: EKVX
Test: NCI tumour cell line growth inhibition, 48 h
The source made the active and inactive calls. Rule as the data show it: active = GI50 up to about 1.1 µM and inactive = higher.
Labels: 1 (active), -1 (inactive)

{"columns": ["COMPOUND", "TARGET ENTITY", "CLASSIFICATION"],
 "data": [
  ["C=C1C(NC)CCC23CC24CCC2(C)C(C(C)=O)C(O)CC2(C)C4CCC13 (stereo unspecified)", "EKVX", -1],
  ["NNC(=O)c1cccc2c1Oc1ccccc1S2", "EKVX", -1],
  ["S=c1sc2cscc2s1", "EKVX", -1],
  ["CO/N=C1/c2sccc2[C@H](NC(=O)CNC(=O)OC(C)(C)C)[C@@H]1O", "EKVX", -1],
  ["c1ccc(C[N+]23C(CC[C@H]2c2ccccc2)CC[C@H]3c2ccccc2)cc1 (stereo partly specified)", "EKVX", -1],
  ["Oc1nc(-c2ccccc2)cc(-c2ccccc2O)n1", "EKVX", -1],
  ["COc1ccc2oc3c(OC)c(OC)c(OC)cc3c(=O)c2c1", "EKVX", -1],
  ["Cc1nc2ccccc2c(=O)n1/N=C(\\N=N\\c1cc(Cl)ccc1Cl)c1ccc(N(C)C)cc1", "EKVX", -1],
  ["O=C([O-])C[n+]1ccccc1.c1ccncc1", "EKVX", -1],
  ["C[C@]12CC/C(=N\\OCCN3CCCCC3)C=C1CCC1C2CC[C@@]2(C)C1CC[C@]2(C)O (stereo partly specified)", "EKVX", -1],
  ["CC(C)(C)NC(=S)N/N=C/c1ccccn1", "EKVX", 1]
]}

---

Tested on: OVCAR-4
Assay: NCI tumour cell line growth inhibition, 48 h
Activity calls are given as the source filed them. No stated cut-off is given here; in the data, active = GI50 up to about 1.1 µM and inactive = higher.
OBSERVED PROPERTY: GI50

{"columns": ["COMPOUND", "TARGET ENTITY", "OBSERVED PROPERTY", "READING"],
 "data": [
  ["COc1cc2ncnc(Nc3cccc(Br)c3)c2cc1OC", "OVCAR-4", "GI50", "4.07 µM (inactive)"],
  ["CC(C)(C)c1ccc(OCCOCCOc2ccc(C(C)(C)C)cc2S(=O)(=O)Nc2ccc([N+](=O)[O-])cc2)c(S(=O)(=O)Nc2ccc([N+](=O)[O-])cc2)c1", "OVCAR-4", "GI50", "33.7 µM (inactive)"],
  ["O=C(Nc1ccccc1[N+](=O)[O-])C(=O)C(C(=O)c1ccccc1-c1ccccc1)C1OC(=O)c2ccccc21 (configuration not stated)", "OVCAR-4", "GI50", "24.1 µM (inactive)"],
  ["COc1cc2c(c(O)c1C)C(=O)C(Cl)=CC2=O", "OVCAR-4", "GI50", "11.8 µM (inactive)"],
  ["CC1C[C@]2(C)C(=O)Nc3ccccc3[C@@H]2Nc2ccccc21 (some centres not stated)", "OVCAR-4", "GI50", "44.3 µM (inactive)"],
  ["Nc1c(S(=O)(=O)O)cc(Nc2cccc(S(=O)(=O)/C=C/S(=O)(=O)O)c2)c2c1C(=O)c1ccccc1C2=O", "OVCAR-4", "GI50", "> 100 µM (inactive)"],
  ["COC1C(O)CC(OC2C(C)OC(Oc3cc(O)c4c(O)c5c(cc4c3)C[C@@H]([C@H](OC)C(=O)[C@@H](O)[C@@H](C)O)[C@H](OC3CC(OC4CC(OC6CC(C)(O)C(O)C(C)O6)C(O)C(C)O4)C(O)C(C)O3)C5=O)CC2OC(C)=O)OC1C (some centres not stated)", "OVCAR-4", "GI50", "> 100 µM (inactive)"]
]}
